Assignment: determine reported IC50 for the given compounds.
biological target: human H3 receptor (Homo sapiens, UniProt Q9Y5N1); construct: purchased Euroscreen ES-392-M; host or cells: CHO-K1 cells (recombinant expression); assay: [35S]GTP-γ-S binding test; type: biochemical; settings: human H3 receptor membrane preparation; 100 μM R(−)-α-methylhistamine; 0.2 nM [35S]GTP-γ-S; 30 μM GDP
Sequence (Q9Y5N1 whole entry): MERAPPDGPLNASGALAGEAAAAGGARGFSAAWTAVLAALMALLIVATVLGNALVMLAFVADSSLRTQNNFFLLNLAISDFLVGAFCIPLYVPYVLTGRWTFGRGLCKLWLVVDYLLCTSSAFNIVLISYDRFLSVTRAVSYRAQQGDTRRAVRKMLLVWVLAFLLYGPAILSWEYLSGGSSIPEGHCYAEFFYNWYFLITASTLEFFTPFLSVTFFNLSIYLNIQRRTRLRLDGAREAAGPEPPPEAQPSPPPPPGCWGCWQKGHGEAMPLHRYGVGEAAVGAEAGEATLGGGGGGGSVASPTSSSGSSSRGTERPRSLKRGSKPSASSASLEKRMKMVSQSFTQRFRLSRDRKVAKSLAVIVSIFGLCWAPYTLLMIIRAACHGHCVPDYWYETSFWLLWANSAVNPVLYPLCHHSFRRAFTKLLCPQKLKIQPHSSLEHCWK
Give bare numbers, in nM.

Solved cases below.
                                   compound  parameter  assay_result
0  O=C(c1cnn(-c2ccc(OC3CCN(C4CCC4)CC3)cc2)c1)N1CCCC1 [Compound No. 14]       IC50           1.6
1  O=C(c1cnn(-c2ccc(OC3CCN(C4CCCC4)CC3)cc2)c1)N1CCCC1 [Compound No. 1]       IC50           2.6
2  O=C(NC1CCCC1)c1cnn(-c2ccc(OC3CCN(C4CCC4)CC3)cc2)c1 [compound 16]       IC50           1.1

Continue with the next compound.
Quick check: IC50 of O=C(c1ccn(-c2ccc(OC3CCN(C4CCC4)CC3)cc2)n1)N1CCCC1 [Compound No. 68] ? 1.2

----------
Assignment: determine reported pIC50 for the given compounds.
target: human H3 receptor (Homo sapiens, UniProt Q9Y5N1); construct: purchased Euroscreen ES-392-M; host or cells: CHO-K1 cells (recombinant expression); experiment: H3 receptor binding test; conditions: membrane preparation of human H3 receptor-expressing CHO-K1 cells; 2 nM R(−)-α-methyl[3H]histamine; room temperature, 1 hour
Give bare numbers, as −log10 of the molar value.

>>> df
                                   compound                           target_of_assay  assay_result
0  O=C(c1cnn(-c2ccc(OC3CCN(C4CCC4)CC3)cc2)c1)N1CCCC1  human H3 receptor (Homo sapiens, UniProt Q9Y5N1)          8.15
1  O=C(NCC1CCCCC1)c1cnn(-c2ccc(OC3CCN(C4CCC4)CC3)cc2)c1  human H3 receptor (Homo sapiens, UniProt Q9Y5N1)          8.21
2  O=C(NC1CCCC1)c1cnn(-c2ccc(OC3CCN(C4CCC4)CC3)cc2)c1  human H3 receptor (Homo sapiens, UniProt Q9Y5N1)          8.24
3  O=C(NCC(F)(F)F)c1cnn(-c2ccc(OC3CCN(C4CCC4)CC3)cc2)c1  human H3 receptor (Homo sapiens, UniProt Q9Y5N1)          7.83
4  O=C(c1cnn(-c2ccc(OC3CCN(C4CCCC4)CC3)cc2)c1)N1CCCC1  human H3 receptor (Homo sapiens, UniProt Q9Y5N1)          7.98
5  O=C(c1ccn(-c2ccc(OC3CCN(C4CCC4)CC3)cc2)n1)N1CCCC1  human H3 receptor (Homo sapiens, UniProt Q9Y5N1)          8.15

Continue with the next compound.
Report pIC50 for CC1CCCC1N1CCC(Oc2ccc(-n3cc(C(=O)N4CCCC4)cn3)cc2)CC1 (stereo not shown) tested on human H3 receptor (Homo sapiens, UniProt Q9Y5N1). 8.09
